Recorded pIC50 values for a group of compounds are listed next.
Tested on: MDBK line
Assay: MTT Cell Proliferation Assay, MDBK line
Format: cell-based, bovine
Conditions: Bos taurus, MDBK, 72 h; second value of A431/MDBK pair; read-out: MTT-72 h MDBK
// scale note: pIC50 = -log10(conc_M); give the bare number

Reference set, count: 8
>>> endpoint_value("Cc1ccc(C(Nc2cccc(C)n2)c2ccc3cccnc3c2O)cc1 (stereo not drawn)")
5.26
>>> endpoint_value("CCN1CCN(C(c2cccnc2)c2ccc3cccnc3c2O)CC1 (stereo not drawn)")
5.12
>>> endpoint_value("O=[N+]([O-])c1cccc(NC(c2ccco2)c2ccc3cccnc3c2O)c1 (stereo not drawn)")
5.23
>>> endpoint_value("Cc1ccc2ccc(C(Nc3ccccn3)c3cccnc3)c(O)c2n1 (stereo not drawn)")
4.51
>>> endpoint_value("CCOc1ccc(C(Nc2ccccn2)c2cc(Cl)c3cccnc3c2O)cc1 (stereo not drawn)")
5.25
>>> endpoint_value("CCOc1ccc(C(Nc2cccnc2)c2cc(Cl)c3cccnc3c2O)cc1 (stereo not drawn)")
5.73
>>> endpoint_value("Oc1c(C(Nc2cccc(F)c2)c2ccccn2)ccc2cccnc12 (stereo not drawn)")
5.15
>>> endpoint_value("Cc1cccc(NC(c2ccc(C(F)(F)F)cc2)c2ccc3cccnc3c2O)n1 (stereo not drawn)")
6.12

Q: Identify measured pIC50 associated with Cc1ccc(NC(c2ccccc2)c2ccc3cccnc3c2O)cc1 (stereo not drawn)
Result: 5.67

Q: Report measured pIC50; entry is Oc1ccccc1NC(c1cccnc1)c1ccc2cccnc2c1O (stereo not drawn)
Result: 5.21

Q: Tell me measured pIC50 for COc1ccc(NC(c2ccccn2)c2ccc3cccnc3c2O)cc1 (stereo not drawn) please.
Result: 4.44

Q: Provide one value: measured pIC50 of CCCC(=O)NC(c1ccc(O)c(OCC)c1)c1cc([N+](=O)[O-])c2cccnc2c1O (stereo not drawn)
Result: 5.61

Q: Given the compound CCOc1cc(C(Nc2cc(C)ccn2)c2ccc3cccnc3c2O)ccc1OC (stereo not drawn) , write its reported pIC50.
Result: 5.15
